I'd be grateful if you could share measured activation at 5000 µM for these entries.
# TGT: Hb (Homo sapiens, UniProt P68871+P69905, E7V)
# Construct: Leftover blood samples from patients with homozygous SS were obtained and utilized; from tissue; host or cells: blood (red cells, then hemolysate) of patients with homozygous SS
# ASSAY PROTOCOL: Hb oxygen equilibrium study (P50 shift, Hemox Analyzer) on lysate of compound-treated SS cells
# Format: cell-based
# MEASUREMENT CONDITIONS: 5 mM compound; intact SS cells; read-out: increase in Hb oxygen affinity (ΔP50)
Give a bare numeral; the unit % is implied.

I have this molecule here, COc1cc(C=O)ccc1O [vanillin, reference compound] , and I need its recorded activation at 5000 µM.
27

// query activation at 5000 µM value for entry C=CC(=O)c1ccc(COc2ccccc2)o1 [MMA-409]
52

Would you mind telling me what activation at 5000 µM value was observed for NC(=O)C(=O)c1ncc[nH]1 [MMA-304] ?
22.1

Request the reported activation at 5000 µM associated with CC(=O)/C=C/c1ncc[nH]1 [MMA-301, (E)-4-(1H-imidazol-2-yl)but-3-en-2-one]
18.2
